test system: K4 kissing-loop RNA reporter; assay: apparent KD of K4 kissing-loop reporter; higher = weaker reporter binding; conditions: Eterna round: R107; input ligand: arginine 13.2 mM;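 note: bound reporter read as fluorescence of individual clusters on recovered sequencing chips by microscopy, with normalized cluster intensities fitted with a binding model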
I would appreciate it if you labelled entries Condition met when apparent KD of K4 kissing-loop reporter is 200 nM or higher, otherwise Condition not met.

Hello, I need to know if GGAUGGUAGGCGGCCGCCACUAAAACUGAACAAAUAUAAACCAGUGAUGUUGGUAUGAUGAAGUAUAGGACCGGGCCUAGAUAGA [Exclusion - Tryptophan B (Freestyle 1)] has measured apparent KD of K4 kissing-loop reporter not below 200 nM. Thanks!
Condition not met

Hello, I need to know if AAAUAGAUCAGUCACCCAGUGAUGUUGGAAGGAGCGUGCGAAAGCACAGGUAGGUCGCCGAAAUAAAAUUGGCUGAUCAAAAUAA has measured apparent KD of K4 kissing-loop reporter not below 200 nM. Thanks!
Condition met

Hello, I need to know if UAAUUUAUGUCUUUAAUAUAAUAAUCAGAUACCAGUGAUUUAUGACACCCUUGGCAGCUGUAUAGAGUGAUGUUCUUAUACAUAA [JR_Nu_ExcTheophyA_Sub020] has measured apparent KD of K4 kissing-loop reporter not below 200 nM. Thanks!
Condition met

Hello, I need to know if AUUCGUUUAUGUGAUACCAGACUUUGCAGUGAUGUUGCAUUAAUUAAAGAUGUUUAGUUUGUCCCUUGGCAGCACUAUUUAUUUA [JR_SSTheophyB_Sub002] has measured apparent KD of K4 kissing-loop reporter not below 200 nM. Thanks!
Condition not met

Hello, I need to know if GUGCGGCUAGUGAUGUUGGUUGCGUGGGAAGGAGCGCAGAAACAUGCAGGUAGGUCGCCCACACCUCUGAAAGGAGGUUAAUUCA [Diusdige] has measured apparent KD of K4 kissing-loop reporter not below 200 nM. Thanks!
Condition not met

Hello, I need to know if GGUUGAAGCACCCGGAGUGAUGUUCCGGAUACCAGCAAACCAACUUGCCCUUGGCAGCCGUAUAGCGUCCGGUGGGCCGAGCAUA [Beisadi] has measured apparent KD of K4 kissing-loop reporter not below 200 nM. Thanks!
Condition not met
